System: ACHN renal
test_details: NCI-60 one-dose screen, 48 h
setup_conditions: 10 µM unless noted
About 83,000 compounds went through this panel and 20% of them were active in at least one assay; those are over-represented in the sample as a whole. The source made the active and inactive calls. How the source made its calls: active means growth percent below 10; inactive means the rest.
Give your call using only these classes: 1 = active, 0 = inactive

The following compounds have reported results that may help.
| compound | assay_target | answer_label |
| --- | --- | --- |
| COC1=C(c2ccccc2)C(=O)C(OC)=C(c2ccccc2)C1=O | ACHN renal | 0 |
| COc1cnc2c(c1)C(=O)c1c-2n(CCCn2ccnc2)c(=O)c2cc(OC)c(OC)cc12 | ACHN renal | 1 |

Record lookup: outcome of this test for `CS(=O)(=O)c1ccc(-c2nn(-c3ccccc3)cc2/C=C/C(=O)c2ccc(Br)cc2)cc1` ?
0

Write down the call the test reported for this compound. Item: `CC(=O)Nc1nc2c(s1)C1=CC[C@H]3[C@@H]4CC[C@H](C(C)=O)[C@@]4(C)CC[C@@H]3[C@@]1(C)CC2`
0

====

Tested on: A549/ATCC NSCLC
test_details: NCI-60 one-dose screen, 48 h
setup_conditions: 10 µM unless noted
The panel holds about 83,000 compounds, 20% with a hit somewhere; the sample as a whole holds those more often. The source made the active and inactive calls. The calls were made as follows: active = growth percent below 10; inactive = the rest.
Log the outcome using a class from T (active), F (inactive)

Some solved entries appear below for comparison.
| compound | answer_label |
| --- | --- |
| COc1ccc(/C=C/C(=O)c2nnn(-c3ccc(C(=O)O)cc3)c2C)cc1OC | F |
| COc1ccc(C(=O)n2cc(C=O)c3ccccc32)cc1 | F |
| Nc1ccc(-c2nnc(SCc3ccc(O)c4ncccc34)o2)cc1 | T |
| NNC(=O)c1sc2nc(-c3cnccn3)cc(-c3cccs3)c2c1N | F |

I'd appreciate the recorded outcome for CS(=O)c1nccc(-c2c(-c3ccc(F)c(OCc4ccccc4)c3)nc3sccn23)n1 (centres undefined) from this test.
F

Entry `Cc1cc(O)c(=O)cc2c1C[C@H]1CC(C)(C)/C=C/C[C@]3(C)Oc4cc(=O)c(O)cc(C)c4C[C@H]3C[C@H](O)[C@@]1(C)O2` : call = ?
T

Just curious, what result did `COc1cc(/C=N/n2cnc3oc(-c4ccccc4)cc3c2=N)cc(CN2CCOCC2)c1O` get here?
F

Recorded test call requested for `NC(=O)c1c(NC(=O)c2cccc(OC(F)(F)F)c2)sc2c1CCC(=O)C2`
F

I'd appreciate the recorded outcome for `CC1CCN(S(=O)(=O)c2ncsc2-c2ccccc2)CC1` from this test.
F

Tell me the assay call for `COc1ccc(Cn2cc3c(c2-c2cc(OC)c(OC)c(OC)c2)CCCc2cnoc2-3)cc1N` please.
F

Please state the recorded outcome for this compound: `CCOc1ccc2nc(NC(=O)Nc3ccccc3C)sc2c1`
F

# lookup: test call for `Cc1nn(-c2ccccc2)cc1/C=N/Nc1nc(Nc2ccccc2)nc(Nc2ccc(S(N)(=O)=O)cc2)n1`
T

Hello, I am checking results. What call was entered for `Cn1ccnc1C(=O)/C=C/c1ccc(C(=O)Nc2ccc(NC(=O)CCNC(=O)c3csc(Br)n3)cc2)cc1` ?
F

Kindly provide the recorded test outcome for the following compound: `C#Cc1ccc(NC(=O)c2ccc(/C=C/C(=O)c3nccn3C)cc2)c(F)c1`
F

Outcome? `CN1CCN(c2ccc(C(=O)Nc3cccc(-c4cn(-c5ccc(S(N)(=O)=O)cc5)nn4)c3)cc2C(F)(F)F)CC1`
F

Give the logged outcome of this assay for the following compound: `CCCCCCNC(=O)Oc1ccc(/C(=C(/C)c2ccccc2)c2ccc(OCCN(C)C)cc2)cc1`
F

For this compound, state the assay outcome: `Fc1ccccc1/C=C(/C1=NCCN1)n1cnc2ccccc21`
F

Write down the call the test reported for this compound. Item: CC(C)=CCC[C@](C)(O)[C@H]1CC[C@]2(C)[C@@H]1CC[C@@H]1[C@@]3(C)CCC(NC(=O)c4ccccc4C(=O)O)C(C)(C)[C@@H]3CC[C@]12C (some centres undefined)
F

What did the test return for `COc1ccc2c(C3=C(c4c[nH]c5ccccc45)C(=O)N(O)C3=O)coc2c1` ?
F

====

For each record, write down the corresponding growth.
Tested on: NCI-H522 lung
test_details: NCI-60 one-dose screen, 48 h (100 = growth as untreated, 0 = no growth, -100 = all killed)
setup_conditions: 10 µM unless noted
This is part of a sample that, as a whole, favours compounds with a hit. Of some 83,000 tested, about 20% had one in any assay. Active and inactive are the calls of the source. Rule for the calls: active = growth percent below 10; inactive = the rest.

// solved cases for growth follow
| compound | growth |
| --- | --- |
| CS(=O)(=O)c1nccc(-c2c(-c3ccc(F)c(OCc4ccc(F)cc4)c3)nc3sccn23)n1 | 53.9% (inactive) |
| C#C[C@]1(O)CC[C@H]2[C@@H]3CC=C4c5sc(-c6ccccn6)nc5CC[C@]4(C)[C@H]3CC[C@@]21C | 91.6% (inactive) |
| COc1cc(C2=NN(C(C)=O)C(c3ccc(N4CCOCC4)cc3)C2)cc(OC)c1OC (stereo unspecified) | 89.7% (inactive) |
| CC(=O)NC(C)(C)C(=O)N[C@@H](C)C(=O)NC(C)(C)C(=O)N[C@@H](C)C(=O)NC(C)(C)C(=O)N[C@@H](C)C(=O)N[C@@H](CCC(N)=O)C(=O)NC(C)(C)C(=O)N[C@H](C(=O)NC(C)(C)C(=O)NCC(=O)N[C@@H](CC(C)C)C(=O)NC(C)(C)C(=O)N1CCC[C@H]1C(=O)N[C@H](C(=O)NC(C)(C)C(=O)NC(C)(C)C(=O)N[C@@H](CCC(N)=O)C(=O)N[C@@H](CCC(N)=O)C(=O)N[C@H](CO)CC1CCCCC1)C(C)C)C(C)C | 6.15% [5 µM] (active) |
| COc1ccc(/C=N/Nc2nc(Nc3ccccc3)nc(Nc3ccc(S(N)(=O)=O)cc3)n2)cc1 | 82.5% (inactive) |

Okay, next one:
Give growth for the following compound: `COc1ccccc1N1CCN(C2=NN=C(c3cccc(Cl)c3)c3ccccc3C2)CC1`
-27.1% (active)

====

Test system: TK-10 renal
test_details: NCI-60 one-dose screen, 48 h
setup_conditions: 10 µM unless noted
The panel holds about 83,000 compounds, 20% with a hit somewhere; the sample as a whole holds those more often. Active and inactive are the calls of the source. Rule for the calls: active = growth percent below 10; inactive = the rest.
API: response.call in 1 (active), -1 (inactive)

Would you please look over these solved cases?
| compound | assay_target | answer_label |
| --- | --- | --- |
| O=C(Nc1cc(Cl)cc(Cl)c1)Nc1nc2ccc([N+](=O)[O-])cc2s1 | TK-10 renal | 1 |
| O=c1c2c(O)cccc2oc2c3c(cc(O)c12)O[C@H]1OC=C[C@@H]31 | TK-10 renal | -1 |
| CCc1ccc(NC(=O)N[C@@H](Cc2cccc(C)c2)C(=O)N[C@@H]2C(=O)N3CCC[C@H]3C(=O)N3CCCC[C@H]3C(=O)N[C@@H](CO)C(=O)N3C[C@H](C)C[C@H]3C(=O)O[C@H]2C)c(F)c1 | TK-10 renal | -1 |
| CCOC(=O)c1c(Nc2ccccc2)nn2c(-c3ccc(OC)c(OC)c3)ccnc12 | TK-10 renal | -1 |
| CC(C)(C)OC(=O)N1CCN(S(=O)(=O)/N=C2\NC(=O)NC2=C(Cl)Cl)CC1 | TK-10 renal | -1 |

For this compound, state the assay outcome: `CCOC(=O)c1c(NCC(=O)Nc2ccc(Br)cc2)sc2c1CCCC2`
-1

Could you check what this test reported for `COc1ccc(-c2nc3cc(Cl)c(Cl)cc3n2CC(=O)N=Nc2c(O)[nH]c3ccc(Br)cc23)cc1` ?
1

Would you mind telling me which call this test gave `N/C(=N\c1nc2c(Cl)cccc2s1)C(Cl)(Cl)Cl` ?
-1

Please indicate how the test categorized `Nc1cc(F)ccc1NC(=O)c1ccc(NC(=O)C/C=C/c2cccnc2)cn1` .
-1

Called result for `IP(CCCCCCCCCCSc1n(Cc2ccc3ccccc3c2)c(-c2ccccc2)c(-c2ccccc2)[n+]1Cc1ccc2ccccc2c1)(c1ccccc1)(c1ccccc1)c1ccccc1`
1

What outcome does the record of this test show for `Cn1cc(-c2nn3cc(-c4cccnc4)nc3s2)c2cc(F)ccc21` ?
-1

In this assay, the call recorded for `C=C1C(=O)O[C@@H]2/C=C(/C)C3=CC(=O)[C@@](C)(C[C@H](OC(=O)/C(C)=C\C)[C@@H]12)O3` was what?
1

Short answer needed: outcome of this test for COc1ccc(Oc2ccc(C3CC(c4cc(OC)c(OC)c(OC)c4)=NN3C(C)=O)cc2)cc1 (stereo unspecified) ?
-1

What call does the record list for COc1cc(C2=NN(C(C)=O)C(c3ccc(N4CCOCC4)cc3)C2)cc(OC)c1OC (stereo unspecified) ?
-1

Would you mind telling me which call this test gave `Cn1cc2c(c1)-c1c(sc3nc(-c4ccc(NC(=O)Nc5cc(C(C)(C)C)on5)cc4)cn13)CC2` ?
-1

Write down the call the test reported for this compound. Item: `O=C(c1ccc(O)cc1)[C@@H]1[C@@H]2CCCN2[C@@]2(C(=O)N(C(=O)c3ccc(F)cc3)c3ccccc32)[C@H]1c1ccc(F)cc1`
-1

Returns: the outcome recorded for `CN1C(=O)/C(=C/C=C/c2ccco2)SC1=S` in this assay.
-1

# lookup: test call for `CCCCCCNC(=O)Oc1ccc(/C(=C(/C)c2ccc(Cl)cc2)c2ccc(OCCN3CCCC3)cc2)cc1`
-1

The origin of these recorded values is PubChem BioAssay (NCI).
